Experiment: Stability to Phase I metabolism in human S9 liver fraction
Format: in vitro ADME
Settings: human, 90 min, pH 7.4
Procedure: Test compounds were incubated in rat and human liver S9 fraction at 37° C. up to 90 minutes in order to evaluate their stability to Phase I metabolism by hepatic enzymes. […] The reaction was stopped placing samples on ice bath and adding acidified acetonitrile. […] The percentages of the amount remaining at the various incubation times with respect to the initial amount were calculated. The intrinsic clearance was also calculated.
Decide by residual percentage in human S9 fraction: equal to or exceeding 80% means Y, less means N.

| givenSmiles | qualitativeLabel |
| --- | --- |
| O=C(NO)c1ccc(Cn2nnc(-c3ccccc3)n2)cc1 | N |
| O=C(NO)c1ccc(Sc2nnc(-c3ccccc3)o2)cc1 | N |
| Cn1c(Sc2c(F)cc(C(=O)NO)cc2F)nnc1-c1ccc(CN2CCOCC2)o1 | Y |
| O=C(NO)c1cc(F)c(Cn2nnnc2-c2cccs2)c(F)c1 | Y |
| O=C(NO)c1cc(F)c(Cc2nnc(-c3cncc(N4CCOCC4)c3)s2)c(F)c1 | Y |
| CN(C)S(=O)(=O)c1ccc(F)c(-c2nnc(Sc3ccc(C(=O)NO)cc3)n2C)c1 | N |
| O=C(NO)c1cc(F)c(Sc2nnc(-c3cccnc3)s2)c(F)c1 | N |
| O=C(NO)c1ccc(Cn2nnnc2-c2ccccn2)cc1 | Y |
| CN(C)Cc1ccc(-c2nnc(Sc3c(F)cc(C(=O)NO)cc3F)n2C)o1 | Y |
| Cn1c(Sc2c(F)cc(C(=O)NO)cc2F)nnc1-c1coc(CN2CCOCC2)c1 | N |
| Cn1c(Sc2c(F)cc(C(=O)NO)cc2F)nnc1-c1ccc(CN2CCCCC2)o1 | N |
| Cn1c(Sc2c(F)cc(C(=O)NO)cc2F)nnc1-c1ccccn1 | Y |
| O=C(NO)c1cc(F)c(Sc2nnc(-c3ccccc3)o2)c(F)c1 | N |
| CCN(CC)Cc1ccc(-c2nnc(Sc3c(F)cc(C(=O)NO)cc3F)n2C)o1 | N |
| CN1CCN(Cc2ccc(-c3nnc(Sc4c(F)cc(C(=O)NO)cc4F)n3C)o2)CC1 | Y |
| O=C(NO)c1ccc(Cc2noc(-c3ccccc3)n2)cc1 | N |
| CC1(C)CC(=O)c2c(S(C)(=O)=O)sc(-c3nnn(Cc4ccc(C(=O)NO)cc4)n3)c2C1 | Y |
| O=C(NO)c1cc(F)c(Cc2noc(-c3ccccc3)n2)c(F)c1 | N |
| Cn1c(Sc2c(F)cc(C(=O)NO)cc2F)nnc1-c1ccco1 | N |
| O=C(NO)c1ccc(Cc2nnc(-c3ccccc3)s2)cc1 | N |
| CCN(CC)Cc1cc(-c2nnc(Sc3c(F)cc(C(=O)NO)cc3F)n2C)c(C)o1 | N |
| O=C(NO)c1cc(F)c(Cn2nnnc2-c2ncccn2)c(F)c1 | Y |
| CN(C)S(=O)(=O)c1cccc(-c2nnc(Cc3ccc(C(=O)NO)cc3)o2)c1 | Y |

====

target: recombinant human HDAC3 (Homo sapiens); assay: Enzymatic screening on recombinant human HDAC3; conditions: Table 3

| givenSmiles | IC50 / nM |
| --- | --- |
| Cn1c(Sc2c(F)cc(C(=O)NO)cc2F)nnc1-c1cccc2ccccc12 | 8650 |
| CN(C)c1cccc(-c2nnc(Sc3ccc(C(=O)NO)cc3)n2C)c1 | 1150 |
| CCN(CC)S(=O)(=O)c1cccc(-c2nnc(Sc3ccc(C(=O)NO)cc3)n2C)c1 | 921 |
| O=C(NO)c1ccc(Cn2nnc(-c3ccccc3F)n2)cc1 | 138 |
| O=C(NO)c1cc(F)c(Cn2nnc(-c3ccccn3)n2)c(F)c1 | 7260 |
| COc1ccc(C(=O)N[C@@H](Cc2cscn2)c2nc(Cc3ccc(C(=O)NO)cc3)no2)cc1OC | 2870 |
| O=C(NO)c1ccc(Cc2nnc(-c3ccc(F)cc3F)o2)cc1 | 206 |
| O=C(NO)c1ccc(Cn2nnc(-c3cccs3)n2)cc1 | 154 |
| O=C(NO)c1cc(F)c(Cn2nnc(-c3cccs3)n2)c(F)c1 | 1860 |

====

IC50 listing for selected compounds.
target: recombinant human HDAC3 (Homo sapiens, UniProt O15379); assay: Enzymatic screening on recombinant human HDAC3; details: Table 3
Sequence (O15379 whole entry): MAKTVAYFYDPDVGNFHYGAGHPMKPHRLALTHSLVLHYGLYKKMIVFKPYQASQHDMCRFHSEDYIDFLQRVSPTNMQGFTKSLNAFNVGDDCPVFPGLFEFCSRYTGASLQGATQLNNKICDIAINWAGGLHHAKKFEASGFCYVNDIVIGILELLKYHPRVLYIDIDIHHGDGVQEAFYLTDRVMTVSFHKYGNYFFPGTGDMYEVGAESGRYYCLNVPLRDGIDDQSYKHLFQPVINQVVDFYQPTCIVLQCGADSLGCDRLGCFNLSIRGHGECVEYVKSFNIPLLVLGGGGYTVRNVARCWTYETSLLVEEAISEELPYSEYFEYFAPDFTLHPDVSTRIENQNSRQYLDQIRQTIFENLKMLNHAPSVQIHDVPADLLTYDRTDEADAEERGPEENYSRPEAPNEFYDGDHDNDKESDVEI
Sequence (Q9Y618 395-489 partner limits assumed): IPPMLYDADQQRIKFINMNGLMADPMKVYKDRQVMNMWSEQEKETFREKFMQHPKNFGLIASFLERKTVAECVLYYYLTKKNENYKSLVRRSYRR
metricName: IC50 (nM)

| givenSmiles | metricName | readingUnit | obsValue |
| --- | --- | --- | --- |
| O=C(NO)c1cc(F)c(Cn2nnnc2-c2ccccn2)c(F)c1 | IC50 | nM | 2490 |
| O=C(NO)c1cc(F)c(Cn2nnc(-c3scc4c3OCCO4)n2)c(F)c1 | IC50 | nM | 1650 |
| CCN(CC)S(=O)(=O)c1cccc(-c2nnc(Sc3ccc(C(=O)NO)cc3)n2N)c1 | IC50 | nM | 488 |

====

fold induction at 0.333 µM listing for selected molecules.
test system: H3 histone acetylation in 697 cell line; test: In vitro H3 histone acetylation in 697 cell line; assay type: cell-based; details: 16 h, conc 333 nM, read-out: Acetylation of H3 histone (fold increase of acetylated H3/total H3 towards control)
metricName: fold induction at 0.333 µM

| molecule | obsValue |
| --- | --- |
| O=C(NO)c1cc(F)c(Cc2nnc(-c3ccncc3)s2)c(F)c1 [compound 195] | 1 |
| O=C(NO)c1cc(F)c(Cn2nnnc2-c2cccs2)c(F)c1 [comp. 15] | 1 |
| Cn1c(Sc2c(F)cc(C(=O)NO)cc2F)nnc1-c1cccc(CN2CCCCCC2)c1 [comp. 167] | 1 |
| Cn1c(Sc2c(F)cc(C(=O)NO)cc2F)nnc1-c1ccc(CN2CCCCCC2)cc1 [comp. 168] | 1 |
| CCN(CC)Cc1ccc2cc(COC(=O)Nc3ccc(C(=O)NO)cc3)ccc2c1 [Givinostat, reference compound] | 17 |
| O=C(NO)c1cc(F)c(Cn2nnc(-c3ccco3)n2)c(F)c1 [comp. 19] | 2 |
| O=C(NO)c1cc(F)c(Cn2nnnc2-c2ncccn2)c(F)c1 [comp. 125] | 1 |

====

molecular target: recombinant human HDAC6 (Homo sapiens); assay: Enzymatic screening on recombinant human HDAC6; assay type: biochemical; settings: Table 2; read-out: HDAC6 IC50
Sequence (Q9UBN7 whole entry): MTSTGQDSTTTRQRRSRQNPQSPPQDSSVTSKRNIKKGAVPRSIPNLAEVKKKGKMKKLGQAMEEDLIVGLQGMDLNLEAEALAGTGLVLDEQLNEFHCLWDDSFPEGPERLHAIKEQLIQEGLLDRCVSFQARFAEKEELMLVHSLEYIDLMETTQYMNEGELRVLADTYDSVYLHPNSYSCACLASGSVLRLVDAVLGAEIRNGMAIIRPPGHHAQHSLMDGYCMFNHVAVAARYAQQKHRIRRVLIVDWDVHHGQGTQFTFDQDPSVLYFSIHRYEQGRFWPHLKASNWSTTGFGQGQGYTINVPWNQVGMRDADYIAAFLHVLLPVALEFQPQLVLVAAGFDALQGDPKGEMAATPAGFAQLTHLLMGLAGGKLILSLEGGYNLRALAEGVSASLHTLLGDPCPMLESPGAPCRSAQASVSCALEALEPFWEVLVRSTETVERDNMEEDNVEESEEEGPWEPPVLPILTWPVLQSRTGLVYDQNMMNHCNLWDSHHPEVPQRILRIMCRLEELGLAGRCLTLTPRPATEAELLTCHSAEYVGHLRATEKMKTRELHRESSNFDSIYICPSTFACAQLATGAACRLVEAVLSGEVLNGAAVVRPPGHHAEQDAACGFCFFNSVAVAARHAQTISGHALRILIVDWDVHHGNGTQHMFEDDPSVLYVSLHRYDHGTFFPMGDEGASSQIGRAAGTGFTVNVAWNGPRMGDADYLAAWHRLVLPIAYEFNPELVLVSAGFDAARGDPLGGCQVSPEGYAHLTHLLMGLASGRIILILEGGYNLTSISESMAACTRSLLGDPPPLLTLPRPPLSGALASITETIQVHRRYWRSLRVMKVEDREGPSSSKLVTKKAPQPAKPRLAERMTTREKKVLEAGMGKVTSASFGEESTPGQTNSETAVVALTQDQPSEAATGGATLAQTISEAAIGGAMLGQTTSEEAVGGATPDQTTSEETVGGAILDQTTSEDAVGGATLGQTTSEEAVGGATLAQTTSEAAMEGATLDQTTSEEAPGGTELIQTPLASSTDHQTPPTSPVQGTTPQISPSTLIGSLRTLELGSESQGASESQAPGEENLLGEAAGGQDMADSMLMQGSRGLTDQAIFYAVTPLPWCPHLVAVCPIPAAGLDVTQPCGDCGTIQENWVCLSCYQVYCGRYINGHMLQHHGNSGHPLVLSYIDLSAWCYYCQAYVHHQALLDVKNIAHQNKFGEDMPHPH
pIC50: −log10 of the molar value.
Decide by pIC50: equal to or exceeding 8 means class 1, less means class 0.

| compound | qualitativeLabel |
| --- | --- |
| NCc1ccc(-c2nnn(Cc3ccc(C(=O)NO)cc3)n2)cc1 | class 1 |
| N[C@@H](Cc1cscn1)c1nc(Cc2ccc(C(=O)NO)cc2)no1 [comp. 48, 2,2,2-trifluoroacetate] | class 0 |
| O=C(NO)c1cc(F)c(Cn2nnnc2-c2ccc(S(F)(F)(F)(F)F)cc2)c(F)c1 | class 0 |
| O=C(NO)c1cc(F)c(Sc2nnc(-c3cccs3)[nH]2)c(F)c1 | class 0 |
| O=C(NO)c1ccc(Nc2nnc(-c3ccccc3)o2)cc1 | class 0 |
| O=C(NO)c1ccc(Cn2nnnc2Cc2ccccn2)cc1 | class 0 |
| COc1ccc(Cc2nnc(-c3cccs3)n2Cc2ccc(C(=O)NO)cc2)cc1OC | class 0 |
| Cn1c(Sc2c(F)cc(C(=O)NO)cc2F)nnc1C1(c2ccccn2)CC1 | class 0 |
| O=C(NO)c1ccc(Cn2nnc(-c3cccc(S(F)(F)(F)(F)F)c3)n2)cc1 | class 0 |
| Cn1c(Sc2ccc(C(=O)NO)cc2)nnc1C1COc2ccccc2O1 (stereo not shown) | class 0 |
| Cn1c(Sc2c(F)cc(C(=O)NO)cc2F)nnc1C1(c2cccnc2)CC1 | class 0 |
| O=C(NO)c1ccc(Cc2nnc(-c3ccccc3)o2)cc1 | class 1 |
| O=C(NO)c1cc(F)c(Cn2nnc(-c3nccc4ccccc34)n2)c(F)c1 | class 0 |
| Cc1cc(-c2nnc(Sc3ccc(C(=O)NO)cc3)n2C)nn1C | class 1 |
| Cn1c(Sc2c(F)cc(C(=O)NO)cc2F)nnc1C1(c2ccccc2)CCN(Cc2ccccc2)CC1 | class 0 |
| O=C(NO)c1ccc(Cn2nnnc2-c2ncccn2)cc1 | class 0 |

====

residual percentage in rat S9 fraction listing for selected molecules.
experiment: Stability to Phase I metabolism in rat S9 liver fraction; assay type: in vitro ADME; conditions: after 90 min, 37° C.

| givenSmiles | residual percentage in rat S9 fraction [%] |
| --- | --- |
| O=C(NO)c1ccc(Cn2nnnc2-c2cccs2)cc1 | 82 |
| O=C(NO)c1ccc(Cc2nnc(-c3ccccc3)[nH]2)cc1 | 62 |
| Cn1c(Sc2c(F)cc(C(=O)NO)cc2F)nnc1-c1cccnn1 | 58 |
| CN(C)S(=O)(=O)c1ccc(F)c(-c2nnc(Sc3ccc(C(=O)NO)cc3)n2C)c1 | 76 |
| O=C(NO)c1cc(F)c(Cn2nnc(-c3nccc4ccccc34)n2)c(F)c1 | 53 |
| COc1ccc(-c2nnnn2Cc2ccc(C(=O)NO)cc2)cc1OCc1ccccc1 | 58 |
| CN1CCN(S(=O)(=O)c2cccc(-c3nnc(Sc4c(F)cc(C(=O)NO)cc4F)n3C)c2)CC1 | 62 |
| Cn1c(Sc2c(F)cc(C(=O)NO)cc2F)nnc1-c1coc(CN2CCOCC2)c1 | 58 |
| O=C(NO)c1cc(F)c(Cn2nnnc2-c2cccc(S(F)(F)(F)(F)F)c2)c(F)c1 | 72 |
